Recorded inhibition in vivo at 0.01 mg/kg, one value per entry.
# Test system: Rattus norvegicus
# experiment.description: Maximum inhibitory effect on Angiotensin I induced pressor responses in anesthetized normotensive rats with 10 ug/kg dose of compound given intra venously
# Assay type: functional
Please give a number only; it is taken to be in %.

Below, 3 molecules whose answers are already recorded.
>  <smiles.entry>
C[C@H](N[C@@H](CCc1ccccc1)C(=O)O)C(=O)N1C(=O)N(Cc2ccccc2)C[C@H]1C(=O)O

>  <measure.unit>
%

>  <inhibition in vivo at 0.01 mg/kg>
39

$$$$
>  <smiles.entry>
CCCCCCCC[C@H](N[C@@H](C)C(=O)N1C(=O)N(Cc2ccccc2)C[C@H]1C(=O)O)C(=O)O

>  <measure.unit>
%

>  <inhibition in vivo at 0.01 mg/kg>
41

$$$$
>  <smiles.entry>
CCCCCCCC[C@H](N[C@@H](C)C(=O)N1C(=O)N(C)C[C@H]1C(=O)O)C(=O)O

>  <measure.unit>
%

>  <inhibition in vivo at 0.01 mg/kg>
53.4

$$$$

Now consider a different molecule.
// assay Rattus norvegicus, entry `C[C@H](N[C@@H](CCc1ccccc1)C(=O)O)C(=O)N1C(=O)N(C)C[C@H]1C(=O)O` , inhibition in vivo at 0.01 mg/kg value = 62.4
